- Subject Of Test: Beta-secretase 1 (Homo sapiens, UniProt P56817)
- Sequence (P56817 whole entry): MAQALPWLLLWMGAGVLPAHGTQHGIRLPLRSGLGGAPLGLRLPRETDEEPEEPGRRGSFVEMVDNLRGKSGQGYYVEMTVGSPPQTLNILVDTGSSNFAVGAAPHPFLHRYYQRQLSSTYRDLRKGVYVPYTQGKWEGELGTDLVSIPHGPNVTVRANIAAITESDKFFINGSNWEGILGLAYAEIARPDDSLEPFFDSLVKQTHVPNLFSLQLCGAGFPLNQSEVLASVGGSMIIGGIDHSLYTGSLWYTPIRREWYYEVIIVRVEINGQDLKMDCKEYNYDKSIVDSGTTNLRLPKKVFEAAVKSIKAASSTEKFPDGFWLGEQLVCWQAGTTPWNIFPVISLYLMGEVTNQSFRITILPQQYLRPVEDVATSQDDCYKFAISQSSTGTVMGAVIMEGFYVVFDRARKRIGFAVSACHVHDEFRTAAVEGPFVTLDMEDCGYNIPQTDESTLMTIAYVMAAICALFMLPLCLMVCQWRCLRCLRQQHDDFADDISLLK
- Run Parameters: dose 50.0 µM, time 60.0 min
Please respond with reported inhibition for every item in the list.
Report the figure in % without appending any unit label.

Reported inhibition for Cc1ccc(CNC(=O)C(CCO)N(C)CCC=C2c3ccccc3C=Cc3ccccc32)cc1 (centres undefined) was 47

Reported inhibition for CN(CCOCCN1c2ccccc2Sc2ccccc21)C(CCO)C(=O)NCc1ccc(Cl)cc1 (centres undefined) was 44

Reported inhibition for Cc1ccc(CNC(=O)C(CCN)N(C)CCOCCN2c3ccccc3Sc3ccccc32)cc1 (centres undefined) was 47

Reported inhibition for CC(O)CC(C(=O)NCc1ccc(F)cc1)N(C)CC/C=C/c1ccccc1-c1ccccc1 (racemic; form 1) was 39

Reported inhibition for CN(CCC=C1c2ccccc2C=Cc2ccccc21)C(CCO)C(=O)NCc1ccc(F)cc1 (centres undefined) was 39

Reported inhibition for Cc1ccc(CNC(=O)C(CO)N(C)CCC=C2c3ccccc3C=Cc3ccccc32)cc1 (centres undefined) was 54

Reported inhibition for CN(CCOCCN1c2ccccc2Sc2ccccc21)C(CCO)C(=O)NCc1ccccc1Cl (centres undefined) was 35

Reported inhibition for CN(CCC=C1c2ccccc2C=Cc2ccccc21)C(CCO)C(=O)NCc1ccccc1Cl (centres undefined) was 48

Reported inhibition for CN(CCOCCn1c2ccccc2c2ccccc21)C(CCN)C(=O)NCc1ccc(F)cc1 (centres undefined) was 78
